Cited source for all entries: patent US8507463B2

assayText: Acceleration test (40° C., relative humidity 75%)
Format: physicochemical
setupConditions: month 0
Experimental: Samples were sealed with polyethylene plastic bags, placed in the thermostatic drying chamber at 40±2° C. with relative humidity of 75±5% for 3 months. Then the samples were taken at the end of the first, second and third month respectively for determination, compared with the result of day 0, results were listed in the table below: […]
measurementType: content (%)
Field: numeric (%). Do not append units.

Some solved cases for reference:
C[C@H](Cn1cnc2c(N)ncnc21)OCP(=O)(OCOC(=O)C(C)(C)C)OCOC(=O)C(C)(C)C [amorphous TD]
99.0
CC(Cn1cnc2c(N)ncnc21)OCP(=O)(OCOC(=O)C(C)(C)C)OCOC(=O)C(C)(C)C.CC1(C)CCC2(C(=O)O)CCC3(C)C(=CCC4C5(C)CCC(O)C(C)(C)C5CCC43C)C2C1 (stereo not shown) [TD oleanolate]
99.2
C[C@H](Cn1cnc2c(N)ncnc21)OCP(=O)(OCOC(=O)C(C)(C)C)OCOC(=O)C(C)(C)C [TD crystalline form A]
99.7

So, C[C@H](Cn1cnc2c(N)ncnc21)OCP(=O)(OCOC(=O)C(C)(C)C)OCOC(=O)C(C)(C)C.O=C(O)/C=C/C(=O)O [TD fumarate] ? Its content (%) was 99.3

====

Type: physicochemical
setupConditions: 0.1N NaOH
measurementType: solubility conclusion, 0.1N NaOH

C[C@H](Cn1cnc2c(N)ncnc21)OCP(=O)(OCOC(=O)C(C)(C)C)OCOC(=O)C(C)(C)C [amorphous TD]
slightly
C[C@H](Cn1cnc2c(N)ncnc21)OCP(=O)(OCOC(=O)C(C)(C)C)OCOC(=O)C(C)(C)C [TD crystalline form A]
slightly
C[C@H](Cn1cnc2c(N)ncnc21)OCP(=O)(OCOC(=O)C(C)(C)C)OCOC(=O)C(C)(C)C [TD crystalline form B]
slightly

====

Type: physicochemical
setupConditions: water
measurementType: solubility conclusion, water

C[C@H](Cn1cnc2c(N)ncnc21)OCP(=O)(OCOC(=O)C(C)(C)C)OCOC(=O)C(C)(C)C [TD crystalline form A]
soluble
C[C@H](Cn1cnc2c(N)ncnc21)OCP(=O)(OCOC(=O)C(C)(C)C)OCOC(=O)C(C)(C)C.O=C(O)/C=C/C(=O)O [TD fumarate]
soluble
C[C@H](Cn1cnc2c(N)ncnc21)OCP(=O)(OCOC(=O)C(C)(C)C)OCOC(=O)C(C)(C)C [amorphous TD]
soluble

====

This section presents compounds with their documented amount of solvent (ml), 0.1N HCl values.
Type: physicochemical
setupConditions: to dissolve 1 g of sample; 0.1N HCl
Give a bare numeral; the unit mL is implied.

Example results:
C[C@H](Cn1cnc2c(N)ncnc21)OCP(=O)(OCOC(=O)C(C)(C)C)OCOC(=O)C(C)(C)C.O=C(O)/C=C/C(=O)O [TD fumarate]
18.5
C[C@H](Cn1cnc2c(N)ncnc21)OCP(=O)(OCOC(=O)C(C)(C)C)OCOC(=O)C(C)(C)C [amorphous TD]
25.2
C[C@H](Cn1cnc2c(N)ncnc21)OCP(=O)(OCOC(=O)C(C)(C)C)OCOC(=O)C(C)(C)C [TD crystalline form B]
27.3

Okay, next one:
In plain terms, C[C@H](Cn1cnc2c(N)ncnc21)OCP(=O)(OCOC(=O)C(C)(C)C)OCOC(=O)C(C)(C)C [TD crystalline form A] has a documented amount of solvent (ml), 0.1N HCl of 33.5

====

Recorded amount of solvent (ml), water values for a group of molecules are listed next.
Format: physicochemical
setupConditions: to dissolve 1 g of sample; water
API: value field is a number in mL; no unit string.

C[C@H](Cn1cnc2c(N)ncnc21)OCP(=O)(OCOC(=O)C(C)(C)C)OCOC(=O)C(C)(C)C.O=C(O)/C=C/C(=O)O [TD fumarate]
120

Sure, the documented amount of solvent (ml), water for C[C@H](Cn1cnc2c(N)ncnc21)OCP(=O)(OCOC(=O)C(C)(C)C)OCOC(=O)C(C)(C)C [TD crystalline form A] is 880

response.value for C[C@H](Cn1cnc2c(N)ncnc21)OCP(=O)(OCOC(=O)C(C)(C)C)OCOC(=O)C(C)(C)C [amorphous TD] (field: amount of solvent (ml), water) = 380

Data point: C[C@H](Cn1cnc2c(N)ncnc21)OCP(=O)(OCOC(=O)C(C)(C)C)OCOC(=O)C(C)(C)C [TD crystalline form B] ; amount of solvent (ml), water = 840

====

assayText: Acceleration test (40° C., relative humidity 75%)
Format: physicochemical
setupConditions: end of month 1
measurementType: content (%)
Your answer should be a plain number; it is taken to be in %.

C[C@H](Cn1cnc2c(N)ncnc21)OCP(=O)(OCOC(=O)C(C)(C)C)OCOC(=O)C(C)(C)C [TD crystalline form A]
93.1
C[C@H](Cn1cnc2c(N)ncnc21)OCP(=O)(OCOC(=O)C(C)(C)C)OCOC(=O)C(C)(C)C.O=C(O)/C=C/C(=O)O [TD fumarate]
99.0
CC(Cn1cnc2c(N)ncnc21)OCP(=O)(OCOC(=O)C(C)(C)C)OCOC(=O)C(C)(C)C.CC1(C)CCC2(C(=O)O)CCC3(C)C(=CCC4C5(C)CCC(O)C(C)(C)C5CCC43C)C2C1 (centres unmarked) [TD oleanolate]
98.7
C[C@H](Cn1cnc2c(N)ncnc21)OCP(=O)(OCOC(=O)C(C)(C)C)OCOC(=O)C(C)(C)C [amorphous TD]
92.3

Value of content (%) reported for the compound C[C@H](Cn1cnc2c(N)ncnc21)OCP(=O)(OCOC(=O)C(C)(C)C)OCOC(=O)C(C)(C)C [TD crystalline form B] is 95.8

====

Type: physicochemical
setupConditions: to dissolve 1 g of sample; methanol
Known amount of solvent (ml), methanol of a selection of compounds
Write the value in mL as a bare number.

Record excerpt, results attached:
C[C@H](Cn1cnc2c(N)ncnc21)OCP(=O)(OCOC(=O)C(C)(C)C)OCOC(=O)C(C)(C)C [TD crystalline form B]
1.5
C[C@H](Cn1cnc2c(N)ncnc21)OCP(=O)(OCOC(=O)C(C)(C)C)OCOC(=O)C(C)(C)C [amorphous TD]
2.0
C[C@H](Cn1cnc2c(N)ncnc21)OCP(=O)(OCOC(=O)C(C)(C)C)OCOC(=O)C(C)(C)C.O=C(O)/C=C/C(=O)O [TD fumarate]
7.4

# amount of solvent (ml), methanol of CC(Cn1cnc2c(N)ncnc21)OCP(=O)(OCOC(=O)C(C)(C)C)OCOC(=O)C(C)(C)C.CC1(C)CCC2(C(=O)O)CCC3(C)C(=CCC4C5(C)CCC(O)C(C)(C)C5CCC43C)C2C1 (centres unmarked) [TD oleanolate] = 760

For C[C@H](Cn1cnc2c(N)ncnc21)OCP(=O)(OCOC(=O)C(C)(C)C)OCOC(=O)C(C)(C)C [TD crystalline form A] the compound record lists amount of solvent (ml), methanol as 1.4

====

Reported content (%) values follow for various compounds
assayText: Acceleration test (40° C., relative humidity 75%)
Type: physicochemical
setupConditions: end of month 3
# number only, unit % dropped from output

See these solved cases before continuing.
C[C@H](Cn1cnc2c(N)ncnc21)OCP(=O)(OCOC(=O)C(C)(C)C)OCOC(=O)C(C)(C)C [amorphous TD]
82.8
CC(Cn1cnc2c(N)ncnc21)OCP(=O)(OCOC(=O)C(C)(C)C)OCOC(=O)C(C)(C)C.CC1(C)CCC2(C(=O)O)CCC3(C)C(=CCC4C5(C)CCC(O)C(C)(C)C5CCC43C)C2C1 (centres unmarked) [TD oleanolate]
98.4
C[C@H](Cn1cnc2c(N)ncnc21)OCP(=O)(OCOC(=O)C(C)(C)C)OCOC(=O)C(C)(C)C [TD crystalline form A]
86.3
C[C@H](Cn1cnc2c(N)ncnc21)OCP(=O)(OCOC(=O)C(C)(C)C)OCOC(=O)C(C)(C)C [TD crystalline form B]
88.7

Turning now to a further record.
The compound C[C@H](Cn1cnc2c(N)ncnc21)OCP(=O)(OCOC(=O)C(C)(C)C)OCOC(=O)C(C)(C)C.O=C(O)/C=C/C(=O)O [TD fumarate] showed content (%) equal to 98.5

====

Parameter content (%): see the listing below.
assayText: Light exposure test (4500±500 Lx)
Assay type: physicochemical
setupConditions: light 4500±500 Lx; day 5
Just the number in %, nothing appended.

Below, each entry is followed by its recorded content (%) result.
C[C@H](Cn1cnc2c(N)ncnc21)OCP(=O)(OCOC(=O)C(C)(C)C)OCOC(=O)C(C)(C)C [TD crystalline form A]
98.3
C[C@H](Cn1cnc2c(N)ncnc21)OCP(=O)(OCOC(=O)C(C)(C)C)OCOC(=O)C(C)(C)C.O=C(O)/C=C/C(=O)O [TD fumarate]
99.2
CC(Cn1cnc2c(N)ncnc21)OCP(=O)(OCOC(=O)C(C)(C)C)OCOC(=O)C(C)(C)C.CC1(C)CCC2(C(=O)O)CCC3(C)C(=CCC4C5(C)CCC(O)C(C)(C)C5CCC43C)C2C1 (centres unmarked) [TD oleanolate]
99.0
C[C@H](Cn1cnc2c(N)ncnc21)OCP(=O)(OCOC(=O)C(C)(C)C)OCOC(=O)C(C)(C)C [amorphous TD]
98.3

content (%) in this record for C[C@H](Cn1cnc2c(N)ncnc21)OCP(=O)(OCOC(=O)C(C)(C)C)OCOC(=O)C(C)(C)C [TD crystalline form B] : 98.8
